Entries annotated with measured pKd
- TESTED SYSTEM: DLG2_2, Q15700
- Sequence (Q15700 189-283): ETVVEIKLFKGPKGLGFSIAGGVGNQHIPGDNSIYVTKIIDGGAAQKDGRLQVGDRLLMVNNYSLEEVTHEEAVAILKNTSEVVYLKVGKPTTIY
- METHOD DESCRIPTION: holdup assay
- Design: key: below the threshold = too weak to quantify, mostly under pKd 3.1 to 4
- CONDITION SUMMARY: plain residues with an end cap or a label only (N-terminal biotin on a linker: ado-ado)
Reply with the value as a number alone.

Would you please look over these solved cases?
KIEDVEITLV [FCHSD2, O94868] ... 3.74
HYPASPDSWV [CTNND2, Q9UQB3] ... 4.09
DYSNLRETDI [ADRA1D, P25100] ... 4.35
FHSIKQSTAV [CRHR1, P34998] ... 4.66

Item TKEIPNCTSV [SORCS3, Q9UPU3] has what recorded pKd? 4.1

Item IQISELETNV [SLC1A7, O00341] has what recorded pKd? 4.56

Item ADEMICITTL [CACNA1D, Q01668] has what recorded pKd? 3.81

Item ATKDKKITTV [EXOC4, Q96A65] has what recorded pKd? 5.75
